Entry source: patent US8791267B2

STUDY_TARGET: PDE4B (Homo sapiens, UniProt Q07343)
Sequence (Q07343 whole entry): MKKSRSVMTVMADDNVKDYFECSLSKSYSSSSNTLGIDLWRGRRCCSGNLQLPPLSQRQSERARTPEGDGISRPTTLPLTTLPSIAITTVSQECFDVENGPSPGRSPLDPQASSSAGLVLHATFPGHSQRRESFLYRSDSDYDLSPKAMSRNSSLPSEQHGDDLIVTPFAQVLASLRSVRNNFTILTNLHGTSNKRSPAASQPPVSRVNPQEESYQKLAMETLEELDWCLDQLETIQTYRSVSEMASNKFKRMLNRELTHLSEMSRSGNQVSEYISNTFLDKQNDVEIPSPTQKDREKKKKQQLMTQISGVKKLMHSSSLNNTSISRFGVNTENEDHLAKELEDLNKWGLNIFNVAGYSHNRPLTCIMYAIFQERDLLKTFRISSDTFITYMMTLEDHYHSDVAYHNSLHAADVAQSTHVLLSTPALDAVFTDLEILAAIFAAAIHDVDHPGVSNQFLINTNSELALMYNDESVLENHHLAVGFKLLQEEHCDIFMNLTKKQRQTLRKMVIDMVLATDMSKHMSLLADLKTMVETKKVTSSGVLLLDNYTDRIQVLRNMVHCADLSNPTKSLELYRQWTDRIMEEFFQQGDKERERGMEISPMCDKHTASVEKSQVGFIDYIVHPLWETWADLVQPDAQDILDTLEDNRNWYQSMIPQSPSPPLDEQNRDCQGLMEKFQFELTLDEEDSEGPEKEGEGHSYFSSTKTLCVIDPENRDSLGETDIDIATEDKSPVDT
ASSAY_TEXT: In-vitro assay for PDE4 enzymes, real-time enzyme-coupled spectrophotometric assay, PDE4B Activity (Table 10)
Format: biochemical
APPLIED_CONDITIONS: human PDE4B (hPDE4B), enzyme-coupled spectrophotometric assay; read-out: PDE4B Activity, hPDE4B
PROPERTY: IC50

Below: 5 compounds and their reported IC50.
COMPOUND	READOUT_VALUE
NC(=O)Nc1ccc(Cc2ccc(O)c(-c3cccc(Cl)c3)c2F)cc1 [P-468]	< 5 µM
COc1ccc(Cn2ccc(C(N)=O)cc2=O)cc1-c1cccc([N+](=O)[O-])c1 [P-207]	< 5 µM
CN(CC(N)=O)c1ccc(Cc2ccc(OC(F)F)c(-c3cccc(Cl)c3)c2)cn1 [P-621]	< 5 µM
COc1ccc(CN2C[C@@H](O)CC2=O)cc1-c1cccc([N+](=O)[O-])c1 [P-248]	< 5 µM
COc1ccc(Cc2nnc(NC(N)=O)s2)c(F)c1-c1cccc(Cl)c1 [P-352]	< 5 µM

[ask] Query (compound): CCNc1ccc(Cc2ccc(OC)c(-c3cccc(Cl)c3)c2F)cn1 [P-318] ; field requested: IC50
[reply] < 5 µM

[ask] Ok, now COc1ccc(Cc2ccc(Cl)nc2)c(F)c1-c1cccc(Cl)c1 [P-226]
[reply] 5 to 20 µM

[ask] Ok, now COc1ccc(Cc2ccc(NC(N)=O)cc2)c(F)c1-c1cccc([N+](=O)[O-])c1 [P-181]
[reply] < 5 µM

---

STUDY_TARGET: PDE4B (Homo sapiens, UniProt Q07343)
ASSAY_TEXT: In-vitro assay for PDE4 enzymes, real-time enzyme-coupled spectrophotometric assay, PDE4B Activity (Table 10)
Assay type: biochemical
APPLIED_CONDITIONS: human PDE4B (hPDE4B), enzyme-coupled spectrophotometric assay; read-out: PDE4B Activity, hPDE4B
pIC50: −log10 of the molar value.
The entries below are paired with their reported pIC50.

Below: 8 compounds and their reported pIC50.
COMPOUND	pIC50
COc1ccc(Cc2ccc[nH]c2=O)c(O)c1-c1cccc(N)c1 [P-185]	4.40 to 4.68
COc1ccc(Cc2ccc(N(C)C(N)=O)cc2)c(F)c1-c1cccc(C(C)=O)c1 [P-338]	> 5.30
COc1ccc(Cc2ccc(NCC(N)=O)nc2)c(F)c1-c1cccc(Cl)c1 [P-471]	> 5.30
COc1ccc(COC2CCCC2)nc1-c1cccc([N+](=O)[O-])c1 [P-038]	4.40 to 4.68
COc1ccc(Cc2ccc(N)c(O)c2)c(F)c1-c1cccc(Cl)c1 [P-256]	4.70 to 5.30
COc1ccc(Cc2ccc(NC(=O)NC3CCCO3)cc2)cc1-c1cccc(Cl)c1 (centres unmarked) [P-566]	> 5.30
COc1ccc(Cc2ccc(N)cc2)cc1-c1cccc([N+](=O)[O-])c1 [P-113]	> 5.30
COc1ccc(CN2CCCC2=O)cc1-c1cccc(Cl)c1 [P-218]	> 5.30

[ask] Given the entry COc1ccc(CN2CCNC(=O)C2)c(F)c1-c1cccc(Cl)c1 [P-623] , what pIC50 was observed with PDE4B (Homo sapiens, UniProt Q07343)?
[reply] 4.70 to 5.30

[ask] Ok, now COc1ccc(Cc2ccccc2CN)cc1-c1cccc([N+](=O)[O-])c1 [P-133]
[reply] 4.70 to 5.30

[ask] Ok, now COc1ccc(Cn2cncc2C(N)=O)c(F)c1-c1cccc(Cl)c1 [P-535]
[reply] > 5.30

[ask] Ok, now CC(=O)Nc1ccc(Cc2ccc(OC(F)F)c(-c3cccc(Br)c3)c2F)cc1 [P-313]
[reply] > 5.30
